# system_name: Non-receptor tyrosine-protein kinase TNK1 (Homo sapiens);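 further: values are averaged percent inhibition of TNK1, compounds from the GSK published kinase inhibitor set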
# Sequence (whole entry): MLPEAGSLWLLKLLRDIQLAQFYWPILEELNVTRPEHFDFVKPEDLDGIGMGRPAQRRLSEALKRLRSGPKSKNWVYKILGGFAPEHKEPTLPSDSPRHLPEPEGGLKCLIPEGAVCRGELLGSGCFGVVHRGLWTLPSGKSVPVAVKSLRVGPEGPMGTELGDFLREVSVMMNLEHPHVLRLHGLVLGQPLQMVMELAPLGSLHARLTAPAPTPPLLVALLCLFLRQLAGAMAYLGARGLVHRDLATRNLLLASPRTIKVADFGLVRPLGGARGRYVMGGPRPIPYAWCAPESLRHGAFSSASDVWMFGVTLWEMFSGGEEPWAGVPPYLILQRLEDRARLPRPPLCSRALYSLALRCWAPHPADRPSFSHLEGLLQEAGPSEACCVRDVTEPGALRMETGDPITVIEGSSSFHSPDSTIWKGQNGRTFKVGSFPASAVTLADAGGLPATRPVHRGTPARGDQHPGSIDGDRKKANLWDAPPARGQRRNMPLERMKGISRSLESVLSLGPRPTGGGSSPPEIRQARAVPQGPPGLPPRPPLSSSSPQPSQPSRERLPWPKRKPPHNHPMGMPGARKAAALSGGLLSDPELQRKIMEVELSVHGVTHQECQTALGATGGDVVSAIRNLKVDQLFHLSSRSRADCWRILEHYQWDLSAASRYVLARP
# conditions_used: at 1 µM
readout: inhibition (%)

compound_structure_string: CN(C)C(=O)O[C@H]1CN[C@H](C#Cc2cc3ncnc(Nc4ccc(OCc5cccc(F)c5)c(Cl)c4)c3s2)C1
readout: inhibition
val: 12
//
compound_structure_string: NC(=O)c1sc(-n2cnc3ccccc32)cc1OCc1ccccc1Br
readout: inhibition
val: 18.9
//
compound_structure_string: Cc1ccc(Nc2ccnc(Nc3cccc(C(N)=O)c3)n2)cc1O
readout: inhibition
val: 52.1
//
compound_structure_string: Oc1cccc(-c2nc(-c3ccccc3)[nH]c2-c2ccncc2)c1
readout: inhibition
val: 12.3
//
compound_structure_string: Cc1cc(-c2ccccn2)cc(C)c1/C=C/c1cncc(-c2nn[nH]n2)c1
readout: inhibition
val: 50.8
//
compound_structure_string: CN(C)C(=O)O[C@@H]1CN[C@@H](C#Cc2cc3ncnc(Nc4ccc(OCc5cccc(F)c5)c(Cl)c4)c3s2)C1
readout: inhibition
val: 8.64
//
compound_structure_string: O=C1Nc2ccc(-c3cccnc3)cc2C1=Cc1cc(Br)c(O)c(Br)c1
readout: inhibition
val: 80.6
//
compound_structure_string: NC(=O)c1cccc(Nc2nccc(Nc3cccc(F)c3)n2)c1
readout: inhibition
val: 44.3
//
compound_structure_string: COc1ccc2ncnc(Nc3ccc(OCc4ccccc4)cc3)c2c1
readout: inhibition
val: 12.3
//
compound_structure_string: COc1ccc(-c2nn3ncccc3c2-c2ccnc(Nc3cccc(C(F)(F)F)c3)n2)cc1
readout: inhibition
val: 9.47
//
compound_structure_string: N#Cc1c(NC(=O)c2ccccc2F)sc2c1CCCC2
readout: inhibition
val: -0.58
//
compound_structure_string: N#Cc1cccc(Nc2nccc(-c3cnn4ncccc34)n2)c1
readout: inhibition
val: 52.3
//
compound_structure_string: CS(=O)(=O)CCNCc1nc(-c2ccc3ncnc(Nc4ccc(OCc5cccc(C(F)(F)F)c5)cc4)c3c2)cs1
readout: inhibition
val: 2.82
//
compound_structure_string: COc1cc(/C=N/Nc2ncnc3c2cnn3C(C)C)ccc1O
readout: inhibition
val: 7.79
//
compound_structure_string: CCOc1nccc2c1nc(-c1nonc1N)n2CC
readout: inhibition
val: 20.1
//
compound_structure_string: CCn1c(-c2nonc2N)nc2ccc(F)cc21
readout: inhibition
val: 9.97
//
compound_structure_string: Cc1ccc2c(-c3ccnc(Nc4cccc(C(F)(F)F)c4)n3)c(-c3ccccc3)nn2n1
readout: inhibition
val: 19.5
//
compound_structure_string: OCc1ccc(-c2nc(-c3ccccn3)c(-c3ccc4c(c3)OCO4)[nH]2)cc1
readout: inhibition
val: -4.68
//
compound_structure_string: C[C@@H](Oc1cc(-n2cnc3ccc(OCC4CCN(C)CC4)cc32)sc1C(N)=O)c1ccccc1C(F)(F)F
readout: inhibition
val: 30.3
//
compound_structure_string: COc1cccc(-n2ncc3c(N/N=C/c4ccc(S(C)(=O)=O)cc4)ncnc32)c1
readout: inhibition
val: 20
//
compound_structure_string: COC(=O)c1ccc2c(c1)C(=Cc1cc(Br)c(O)c(Br)c1)C(=O)N2
readout: inhibition
val: 70.2
//
compound_structure_string: COC(=O)c1cncc(/C=C/c2c(C)cc(O)cc2C)c1
readout: inhibition
val: 20
//
compound_structure_string: CN(C)CCCn1c(-c2nonc2N)nc2cnccc21
readout: inhibition
val: -3.93

---

# system_name: RAC-beta serine/threonine-protein kinase (Homo sapiens) (UniProt P31751)
# Sequence (P31751 whole entry): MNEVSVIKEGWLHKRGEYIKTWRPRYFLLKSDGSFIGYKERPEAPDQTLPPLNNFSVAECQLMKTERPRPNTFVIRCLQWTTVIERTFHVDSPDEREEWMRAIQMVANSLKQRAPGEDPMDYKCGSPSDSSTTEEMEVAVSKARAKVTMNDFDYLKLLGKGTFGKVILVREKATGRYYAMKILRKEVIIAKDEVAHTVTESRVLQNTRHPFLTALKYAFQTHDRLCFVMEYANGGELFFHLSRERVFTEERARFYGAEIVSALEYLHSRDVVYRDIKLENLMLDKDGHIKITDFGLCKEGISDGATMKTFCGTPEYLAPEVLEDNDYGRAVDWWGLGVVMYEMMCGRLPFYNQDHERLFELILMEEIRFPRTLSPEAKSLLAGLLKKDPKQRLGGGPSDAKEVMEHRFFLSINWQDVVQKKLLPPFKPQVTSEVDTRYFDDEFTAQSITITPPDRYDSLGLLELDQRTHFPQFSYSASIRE
# conditions_used: at 1 µM
# Description: GSK_PKIS: AKT2 mean inhibition at 1 uM [Nanosyn]
Reported inhibition is given for each of the following molecules.

compound_structure_string: CN(C)c1cc2c(Nc3ccc4c(cnn4Cc4ccccc4)c3)ncnc2cn1
inhibition (%): 1.16
//
compound_structure_string: COc1cc2ncnc(Nc3ccc(C)c(O)c3)c2cc1OC
inhibition (%): 1.77
//
compound_structure_string: COc1ccc2ncnc(Nc3ccc(OCc4ccccc4)cc3)c2c1
inhibition (%): 0.34
//
compound_structure_string: [O-][S+]1CCN(Cc2ccc(-c3ccc4ncnc(Nc5ccc(OCc6ccccc6)c(Cl)c5)c4c3)o2)CC1
inhibition (%): 1.29
//
compound_structure_string: O=C1Nc2ccccc2/C1=C/Nc1ccc2[nH]c(=O)[nH]c2c1
inhibition (%): 2.21
//
compound_structure_string: COc1cc2ncn(-c3cc(OCc4ccccc4S(C)(=O)=O)c(C#N)s3)c2cc1OC
inhibition (%): 1.33
//
compound_structure_string: Cc1cc(O)cc(C)c1/C=C/c1cncc(C(=O)N(C)C)c1
inhibition (%): 0.78
//
compound_structure_string: CCn1c(-c2nonc2N)nc2c(C#CC(C)(C)O)nc(OCCNC)cc21
inhibition (%): 75.3
//
compound_structure_string: Cc1ccc(NC(=O)CC2CC2)cc1-c1ccc(C(=O)NCC2CC2)cc1
inhibition (%): 1.58
//
compound_structure_string: O=C(Nc1ccc(Oc2ccc3[nH]c(NC(=O)c4ccco4)nc3c2)cc1)Nc1cc(C(F)(F)F)ccc1F
inhibition (%): -2.64

---

# system_name: Serine/threonine-protein kinase Nek7 (Homo sapiens) (UniProt Q8TDX7);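 further: figures are averaged percent inhibition of NEK7 kinase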
# Sequence (Q8TDX7 whole entry, looked up): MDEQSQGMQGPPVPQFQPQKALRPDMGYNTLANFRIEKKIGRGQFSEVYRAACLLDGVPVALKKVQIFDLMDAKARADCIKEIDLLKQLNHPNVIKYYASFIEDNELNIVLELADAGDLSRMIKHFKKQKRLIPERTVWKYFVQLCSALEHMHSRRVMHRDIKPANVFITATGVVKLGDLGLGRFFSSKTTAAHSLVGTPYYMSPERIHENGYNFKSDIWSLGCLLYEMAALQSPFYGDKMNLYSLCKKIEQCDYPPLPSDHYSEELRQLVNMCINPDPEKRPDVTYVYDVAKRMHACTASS
# conditions_used: at 0.1 µM
readout: inhibition (%)

compound_structure_string: N#Cc1cccc(Nc2nccc(-c3cnn4ncccc34)n2)c1
readout: inhibition
val: -4.91

compound_structure_string: NS(=O)(=O)c1ccc(Nc2cc(-c3cccc(O)c3)n[nH]2)cc1
readout: inhibition
val: 6.05

compound_structure_string: Nc1nccc(-c2c(-c3ccc(F)cc3)ncn2CCCN2CCOCC2)n1
readout: inhibition
val: 5.79

compound_structure_string: COc1cc2ncnc(Nc3ccc(C)c(O)c3)c2cc1OC
readout: inhibition
val: 4.88

compound_structure_string: CN(C)C(=O)O[C@@H]1CN[C@@H](C#Cc2cc3ncnc(Nc4ccc(OCc5cccc(F)c5)c(Cl)c4)c3s2)C1
readout: inhibition
val: 3.24

compound_structure_string: COc1cc(/C=N/Nc2ncnc3c2cnn3C(C)C)ccc1O
readout: inhibition
val: 5.39

---

# system_name: Casein kinase II subunit alpha (Homo sapiens) (UniProt P68400)
# Sequence (P68400 whole entry, looked up): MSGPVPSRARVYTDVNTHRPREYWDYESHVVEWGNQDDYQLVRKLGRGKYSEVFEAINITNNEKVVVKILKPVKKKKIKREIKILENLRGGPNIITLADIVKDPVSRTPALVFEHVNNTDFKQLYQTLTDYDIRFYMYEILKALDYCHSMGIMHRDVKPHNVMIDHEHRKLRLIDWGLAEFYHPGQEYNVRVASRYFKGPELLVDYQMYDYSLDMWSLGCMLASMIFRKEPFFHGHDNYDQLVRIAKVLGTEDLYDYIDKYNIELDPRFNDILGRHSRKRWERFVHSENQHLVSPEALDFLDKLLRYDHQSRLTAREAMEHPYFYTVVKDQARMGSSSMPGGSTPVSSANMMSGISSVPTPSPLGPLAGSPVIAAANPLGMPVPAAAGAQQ
# conditions_used: at 0.1 µM
# Description: GSK_PKIS: CK2 mean inhibition at 0.1 uM [Nanosyn]

compound_structure_string: Oc1cccc(-c2nc(-c3ccccc3)[nH]c2-c2ccncc2)c1
system_name: Casein kinase II subunit alpha (Homo sapiens) (UniProt P68400)
u: %
inhibition: 3.96
--
compound_structure_string: COC(=O)c1ccc2c(c1)C(=Cc1cc(Br)c(O)c(Br)c1)C(=O)N2
system_name: Casein kinase II subunit alpha (Homo sapiens) (UniProt P68400)
u: %
inhibition: 14.7
--
compound_structure_string: COc1cc(/C=N/Nc2ncnc3c2cnn3C(C)C)ccc1O
system_name: Casein kinase II subunit alpha (Homo sapiens) (UniProt P68400)
u: %
inhibition: 2.91
--
compound_structure_string: COc1cc2ncnc(Nc3ccc(C)c(O)c3)c2cc1OC
system_name: Casein kinase II subunit alpha (Homo sapiens) (UniProt P68400)
u: %
inhibition: 2.65
--
compound_structure_string: NS(=O)(=O)c1ccc(-c2cc3ccncc3cc2OCc2ccccc2)cc1
system_name: Casein kinase II subunit alpha (Homo sapiens) (UniProt P68400)
u: %
inhibition: 5.15
--
compound_structure_string: Cc1ccc(NC(=O)CC2CC2)cc1-c1ccc(C(=O)NCC2CC2)cc1
system_name: Casein kinase II subunit alpha (Homo sapiens) (UniProt P68400)
u: %
inhibition: 4.55
--
compound_structure_string: Nc1nccc(-c2c(-c3ccc(F)cc3)nn3cc(C(F)(F)F)ccc23)n1
system_name: Casein kinase II subunit alpha (Homo sapiens) (UniProt P68400)
u: %
inhibition: 15.6
--
compound_structure_string: Cc1ccc(Nc2ccnc(Nc3cccc(C(N)=O)c3)n2)cc1O
system_name: Casein kinase II subunit alpha (Homo sapiens) (UniProt P68400)
u: %
inhibition: 4.12
--
compound_structure_string: COc1cc(Nc2nccc(-c3cnn4ncccc34)n2)cc(OC)c1
system_name: Casein kinase II subunit alpha (Homo sapiens) (UniProt P68400)
u: %
inhibition: 8.84
--
compound_structure_string: CCOc1nccc2c1nc(-c1nonc1N)n2CC
system_name: Casein kinase II subunit alpha (Homo sapiens) (UniProt P68400)
u: %
inhibition: 5.33
--
compound_structure_string: Cc1cc(O)cc(C)c1/C=C/c1cncc(C(=O)N(C)C)c1
system_name: Casein kinase II subunit alpha (Homo sapiens) (UniProt P68400)
u: %
inhibition: 4.25
